src = patent US20250340623A1

- Target under test: monomeric alpha-synuclein (UniProt P37840 1-140)
- Test details: SPR, captured mAb
Measure: koff (s⁻¹)
Give the value in s⁻¹ but do not write s⁻¹ after it.

Look at this binder and give its reported koff. ACI-7079-3101E3-Ab1 (antibody, V domains shown, mouse hybridoma mAb; VH/VL only; also called 3101E3C9) VH: QVQLKESGPGLVAPSQSLSITCTVSGFSLTRYIINWVRQPPGKGLEWLGVIWTGGGTDYNSALKSRLSISKDNSKSQVFLKMNSLQTDDTARYYCAREYGYDGAWFAYWGQGTLVTVSA VL: DVLMTQTPLSLPVSLGDQASISCRSSQTIVHSNGNTYLEWYLQKPGQSPKLLIYKVSNRFSGVPDRFSGSGSGTDFTLKISRVEAEDLGVYYCFQGSHVPYTFGGGTKLEIK
0.0569

Look at this binder and give its reported koff. ACI-8032-6301G2-Ab2 (antibody, V domains shown, mouse hybridoma mAb; VH/VL only; also called 6301G2D11) VH: EVQLQQSGPELVKPGASVKISCKASGYTFTDYFMNWVKQSHGKSLEWIGDINPNIGVTNYNPKFKDRATLTVDKSSSSAYMELRSLTSEDSTVYYCARGGGSNPLYYAMDYWGQGTSVTVSS VL: DIVMSQSPSSLAVSAGEKVTMSCKSSQSLLNSRTRKNYLAWYQQKPGQSPKLLIYWASTRESGVPDRFTGSGSGTDFTLTISSVQAEDLAVYFCKQSYDLWTFGGGTKLEIK
0.000237

Look at this binder and give its reported koff. ACI-7067-4813-R4A-G7-rec1 (antibody, mouse IgG2a, V domains shown, from phage display of immunised mice; positive clones expressed recombinantly as murine IgG2a; VH/VL only; also called ACI-7067-R4A-G7-Ab-1) VH: EVQLEESGGGLVHPKGSLKLSCAASGFTFNSYAMHWVRQAPGKGLEWVARIRSKRSNYATYYADSVKDRFTISRDDSQSMVYLEMNNLEAEDTATYYCVRGGREAMDFWGQGTSVTVSS VL: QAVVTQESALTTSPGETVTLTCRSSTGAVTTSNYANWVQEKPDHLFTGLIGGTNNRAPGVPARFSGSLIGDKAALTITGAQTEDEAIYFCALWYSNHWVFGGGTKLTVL
0.0737

Look at this binder and give its reported koff. ACI-7087-4125E6-Ab1 (antibody, V domains shown, mouse hybridoma mAb; VH/VL only; also called 4125E6D5) VH: QVQLQQPGTELVKPGASVRLSCKASGYAFTSYWMHWVKQRPGQGLEWIGNINPSNGGTNYNEKFKNKATLTVDKSSSTAYMQLSGLTSEDSAVYYCATGLHYWGQGTTLTVSS VL: DIQMTQSPSSLSASLGERVTLTCRASQDIGNYLNWLQQEPDGTIKRLIYATSSLDSGVPKRFSGSRSGSDYSLTISSLESEDFVDYYCLQFASSPLTFGPGTKLELK
0.0261

Look at this binder and give its reported koff. ACI-8030-6106F5-Ab1 (antibody, V domains shown, mouse hybridoma mAb; VH/VL only; also called 6106F5B10) VH: QVQLQQSGPELVKPGASVKISCKASGYSFTTYYIHWMKQRPGQGPEWIGWIYPGRGYTKYNEKFKDKAAQTADTSSNTAYMQLSSLRSEDSAVYYCARDWETGFPYWGQGTLVTVSA VL: DIVLTQSPASLAVSLGQRATISCKASQSVDYGGDSWLNWYQQKPGQPPKLLIYAASNLDSGIPARFGGSGSGTDFTLNIHPVEEEDAATYYCQQSGEDPFTFGGGTNLEIK
0.00023

Look at this binder and give its reported koff. ACI-8032-6313G2-Ab1 (antibody, V domains shown, mouse hybridoma mAb; VH/VL only; also called 6313G2A10) VH: EVQLQQSGPELVKPGASVKISCKASGYTFTDYYMNWVKQSHGKSLEWIGDIDPNNGVTSYSQKFKGKATLTVDKSSSTAYMELRSLTSEDSAVYYCARTGYYGTSLYYAMDYWGQGTSVTVSS VL: DIVMSQSPSSLAVSAGEKVTMNCKSSQSLLNSRTRKNYLAWYQQKPGQSPKLLIYWASTRESGVPDRFIGSGSGTGFTLTISSVQAEDLAVYYCKQSYDLWTFGGGTKLEIK
0.000541

Look at this binder and give its reported koff. ACI-8032-6301A10-Ab2 (antibody, V domains shown, mouse hybridoma mAb; VH/VL only; also called 6301A10E12) VH: QVQLQQSGAELARPGASVKLSCKASGYTFTSYGISWVKQRTGQGLEWIGEIYPRSGNTYYNEKFKGKATLTADKSSSTAYMELRSLTSEDSAVYFCASESYYGDYDWYFDVWGTGTTVTVSS VL: DVLMTQTPLSLPVSLGDQASISCRSSHSIEHSNGNTYLEWCLQKPGQPPKFLIYKVSNRFSGVPDRFSGSGSGTDFTLRISRVEAEDLGVYYCFQGSHVPPTFGGGTKLEIK
0.00517

Look at this binder and give its reported koff. ACI-7079-2601B6-Ab1 (antibody, V domains shown, mouse hybridoma mAb; VH/VL only; also called 2601B6D2; ACI-7079-26016NAbM) VH: EIQLQQSGAELVRPGASVKLSCTTSGFNIKDDYIHWVKQRPEQGLEWIGWIDPENGDTDYASKFQGKATITADTSSNTAYLHLSSLTSEDAAVYFCTTRGFGYWGQGTLVTVS VL: DIVMTQSHKFMSTSVGDRVSITCKASQDVGNVVAWYQQKPGQSPKLLIYWASSRHTGVPDRFTGSGSGTEFTLTISNVQSEDLADYFCQQYSSYPLTFGAGTKLELK
0.0238

Look at this binder and give its reported koff. ACI-7079-3103D9-Ab1 (antibody, V domains shown, mouse hybridoma mAb; VH/VL only; also called 3103D9C9) VH: QVSLKESGPGILQPSQTLSLTCSFSGFSLSTFGMGVGWIRQPSGKGLDWLTHIWWDDDKYYNPGLKSRLTISKDTSKNQVFLEIANVDTADTATYYCARIGDYYGTRGYFDVWGTGTTVTVSS VL: DIVMTQSPSSLTMSLGQTVTMSCKSSQSLLNSSNQKNHLAWYQQRPGQSPKLLVYFASTRESGVPERFIGGGSGTDFTLTISNVQSEDLTDYFCQQHYSTPYTFGGGTKLEIK
0.000437

Look at this binder and give its reported koff. ACI-8032-6304F3-Ab1 (antibody, V domains shown, mouse hybridoma mAb; VH/VL only; also called 6304F3D12) VH: QVQLQQSGAELARPGASVKLSCKASGYTFTSYGVSWVKQRTGQGLEWIGEIYPRSGNTYYNEKFKGKATLTADKSSSTAYMELRSLTSEDSAVYFCASESYYGDYDWYFDVWGTGTTVTVSS VL: DVLMTQIPLSLPVSPGDQVSISCRSSQSIVHSNGNTYLEWYLQKPGQSPKPLIYKVSNRFSGVPDRFSGSGSGTDFTLKISRVEAEDLGVYYCFQGSHVPPTFGGGTKLEIK
0.016
